Target: RsmN (Pseudomonas aeruginosa PAO1)
Experiment: ITC
Conditions: ITC: 125 uM RNA titrated into protein, 25 mM potassium phosphate pH 7, 50 mM NaCl, 298 K; SEC: 50 uM protein, 100 uM RNA, same buffer
endpoint label: pKd
Convention used: pKd is expressed as -log10 of the molar concentration.

Given item CCCCGAAGGAUCGGGG [RsmZ-2 hairpin] , the value recorded as its pKd is 6.56

FYI, the data here is from paper PMC3791407.
